system: EKVX; test: NCI tumour cell line growth inhibition, 48 h
The source made the active and inactive calls. No stated cut-off is given here; in the data, active = GI50 up to about 1.1 µM and inactive = higher.
Assay readout: GI50

q: Recorded GI50 for O=C(Cc1csc(-c2nc(CC(=O)NNc3ccccc3)cs2)n1)NNc1ccccc1 with EKVX, please?
a: > 100 µM (inactive)

q: Thanks! And Cc1cc2c(cc1C(=O)CCC(=O)O)CC1(C2)Cc2cc(C)c(C(=O)CCC(=O)O)cc2C1 ?
a: > 100 µM (inactive)

* * *

system: NCI-H460; assay: NCI tumour cell line growth inhibition, 48 h
The source made the active and inactive calls. Cut-off read from the data, not from the text of the source: active = GI50 up to about 1.1 µM and inactive = higher.
The reply should be one of these categories: True for active, False for inactive

Some entries whose results are on file:
- Molecule: "Cc1cc(O)c2c(c1)C(=O)c1c(c(O)cc(O)c1-c1c(O)cc(O)c3c1C(=O)c1cc(C)cc(O)c1C3=O)C2=O [SKYRIN]"
  Class label: "False"
- Molecule: "CCCCS(=O)(=O)Nc1ccc(Nc2c3ccccc3nc3ccccc23)c(OC)c1"
  Class label: "True"
- Molecule: "SC1=C2CCCCCC2=NC2(CCCCCC2)S1"
  Class label: "False"
- Molecule: "CC(C)NC(=O)N(Nc1ccccc1)C(C)(C)C"
  Class label: "False"

Consider the record given below.
q: Record lookup: outcome of this test for CC1CCC2(OCCO2)[C@]2(C)CC(O)C(=O)C=C12 (stereo not given in full) ?
a: False

* * *

tested on: NCI-H226; assay: NCI tumour cell line growth inhibition, 48 h
The source made the active and inactive calls. Rule as the data show it: active = GI50 up to about 1.1 µM and inactive = higher.
The reply should be one of these categories: true (active), false (inactive)

Some entries whose results are on file:
- Molecule: "O=c1cnn(C2OC(CO)C(O)C(F)C2O)c(=O)[nH]1 (stereo not given)"
  Assay system: "NCI-H226"
  Class label: "false"
- Molecule: "C[C@@H](NC1CCC[C@@H]1O)c1ccccc1 (stereo not given in full)"
  Assay system: "NCI-H226"
  Class label: "false"
- Molecule: "CC1CC(C(=O)OC2OC(COC3OC(CO)C(OC4OC(C)C(O)C(O)C4O)C(O)C3O)C(O)C(O)C2O)C2CCC3(C)C(=CCC4(C)C3CCC3C(C)(CO)C(O)C(O)CC34C)C2C1C (stereo not given)"
  Assay system: "NCI-H226"
  Class label: "false"

q: Record lookup: outcome of this test for Cc1cn([C@H]2[C@@H](CO)C[C@H]2O)c(=O)[nH]c1=O ?
a: false

q: Thanks! And CC1NCCc2c1[nH]c1cc(O)ccc21 (stereo not given) ?
a: false

q: Thanks! And Cc1c2c(n3c(nc4ccccc43)c1C#N)SCC2 ?
a: false

q: Thanks! And CCc1[nH]c(=O)c2oc3cc4ccccc4cc3c2c1C(=O)O ?
a: false

q: Thanks! And CCN1CCC(O)(c2ccc(Oc3ccc(C)cc3)cc2)C(C(=O)c2ccc(Oc3ccc(C)cc3)cc2)C1 (stereo not given) ?
a: false

q: Thanks! And O=S(=O)(N/C(=N\O)Nc1ccc(Cl)cc1)c1cc2ccccc2o1 ?
a: false

q: Thanks! And CC(=O)Oc1ccc(O)c(O)c1C/C=C(\C)CC/C=C(\C)CC/C=C(\C)CCC=C(C)C [TETRAPRENYLPHENOLSUILLIN] ?
a: true

q: Thanks! And O=C(c1ccc2ccccc2c1O)N1CCCCC1 ?
a: false

q: Thanks! And CCSc1nnc(CSc2nc(-c3ccccc3)c(-c3ccccc3)[nH]2)n1-c1ccccc1 ?
a: false

q: Thanks! And O=C1c2ccccc2C(=O)c2c1c1cc(O)ccc1n2Cc1ccc(Cl)cc1Cl ?
a: false

q: Thanks! And CCC(=O)NCC1(c2c[nH]c3ccccc23)SCCS1 ?
a: false

q: Thanks! And Clc1ccc(/C=C/c2nc(-c3ccc(Cl)cc3)cn3c2nc2ccccc23)cc1 ?
a: false

q: Thanks! And N#CC1CCCCOCCOCCOCCOCCOCCCCCC1=O (stereo not given) ?
a: false

q: Thanks! And FC(F)(F)C1(Cl)C(Cl)(c2ccccc2)C1(Cl)c1ccccc1 (stereo not given) ?
a: false

q: Thanks! And CCCCCCC(=O)O[C@H]1CC[C@H]2[C@@H]3CCC4C/C(=N/NC(=O)c5cccc6c(=O)c7ccccc7[nH]c56)C=C(C)[C@]4(C)[C@H]3CC[C@]12C (stereo not given in full) ?
a: false

q: Thanks! And Brc1nc2c3ccccc3ncn2c1Br ?
a: false

q: Thanks! And O=C(O)c1cc(Sc2ccc([N+](=O)[O-])c(C(=O)O)c2)ccc1[N+](=O)[O-] ?
a: false
